Entry source: the RNAGym collection of RNA variant scans (doi:10.7554/elife.80360)

B1: CPEB3 Ribozyme (parent)
chain: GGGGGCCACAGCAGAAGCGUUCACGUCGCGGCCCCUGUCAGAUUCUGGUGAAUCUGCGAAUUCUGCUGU

variants of: B1; assay: self-cleavage, relative activity (ratio to wild type); higher = more cleavage; co-transcriptional
value-type: self-cleavage
Lab note: jot the number down without any unit.

The variant listed as G19U G65U has a reported self-cleavage of 0.148

Notebook: U44G A52G , self-cleavage read as 0.943

According to the records, this variant C7G U46C displays self-cleavage of 0.38

Measured self-cleavage, U55G C66U : 0.681

// sample C39A U55G , its self-cleavage was 0.808

Kindly note the recorded self-cleavage for C6G G30C , which is 0.133

response.value for G1C C7G (field: self-cleavage) = 0.128

Memo: G11A C35U , reported self-cleavage: 0.861

Value of self-cleavage reported for the variant G30C G31A is 0.252

Note to self: self-cleavage recorded for C39U U49G was 0.975

The recorded self-cleavage for G3C U26C is 0.0733
